Test system: vacuolar-type (H+)-ATPase derived from macrophage cells (J774)
Assay: vacuolar-type (H+)-ATPase inhibition assay, membrane vesicles (J774)
Assay type: biochemical
Conditions: bafilomycin-sensitive activity; oligomycin 5 μg/ml and vanadate 1 mM present; 37°, 30 minutes
observable: IC50 (nM)
A number alone suffices; assume nM.

• CC/C=C\C=C/C(=O)N/C=C/CC1CC(O)C(C)C/C=C/Cc2cccc(O)c2C(=O)O1 (centres unmarked) [salicylihalamide A] = 2.8

Given CO/N=C/C=C\C(=O)N/C=C/CC1CC(=O)OC(C)/C=C/C(O)/C(C)=C\Cc2cccc(O)c2C(=O)O1 (centres unmarked) [lobatamide A] , state its recorded IC50. 2.8
